Each recorded value in this set is attributed to patent US7750006B2.

System: HeLa cells
test protocol: Dose Enhancing Factor: cell growth inhibition with bleomycin, SRB assay
Type: cell-based
reported conditions: test compound 25 μM, bleomycin 0.5 μg/ml
Exercise: state measured DEF (Dose Enhancing Factor) for each of the compounds provided.

Entry under review: COc1cc(Cc2n[nH]c(=O)c3ccccc23)ccc1OCc1ccccc1 . Reported DEF (Dose Enhancing Factor)?
1.2

Can you look up the measured DEF (Dose Enhancing Factor) of O=C(Nc1ccc(Cc2n[nH]c(=O)c3ccccc23)cc1)c1ccc(F)cc1 for me?
2.6

DEF (Dose Enhancing Factor) lookup needed for Cn1ccnc1SCc1n[nH]c(=O)c2ccccc12 , thanks.
1.5

Record request: DEF (Dose Enhancing Factor) value, item O=c1[nH]nc(Cc2cccc(Br)c2)c2ccccc12
1.4

Value lookup for DEF (Dose Enhancing Factor); key = Cc1ccc(Cc2n[nH]c(=O)c3ccccc23)cc1
1.4

Please look up its DEF (Dose Enhancing Factor): Nc1cccc(Cc2n[nH]c(=O)c3ccccc23)c1
1.5

Which DEF (Dose Enhancing Factor) is listed for O=C(Nc1ccccc1)Nc1cccc(Cc2n[nH]c(=O)c3ccccc23)c1 ?
1.4
